Source: PubChem BioAssay (NCI)

system: ACHN renal; assay: NCI tumour cell line growth inhibition, 48 h
result type: TGI

Answered cases to consult:
compound: Brc1ccc2[nH]cc(-c3nc(-c4c[nH]c5ccncc45)cs3)c2c1
TGI: 3.16 µM

compound: COc1ccc(/C=C(\C#N)c2nc(-c3cc4ccccc4oc3=O)cs2)cc1
TGI: 42.2 µM

compound: O=C1CCC(c2ccccc2)(c2ccccc2)CC1
TGI: > 100 µM

Take each entry in turn and give its TGI.
1. CN(C)/C(=N/C(=O)Nc1ccccc1)SCc1ccccc1
2. NC(=O)c1ccc(-c2c3ccccc3cc3c2ccc2ccccc23)cc1

A)
["> 100 µM", "62 µM"]

Here are 5 compounds. What values of TGI were reported for them?
1. COCCn1cc(-c2csc(-c3c[nH]c4ccc(F)cc34)n2)c2cccnc21
2. Cc1ccc2c(=O)c3c(O)c4c(cc3n(C)c2c1)OC(C)(C)C=C4
3. CCCCCCCCSC(SCCCCCCCC)=C1C(=O)N(c2ccccc2)N=C1C
4. COc1ccc2c3c([nH]c2c1)[C@H]1C[C@H]2[C@H](C[C@@H](O)[C@H](OC)[C@H]2C(=O)O)CN1CC3
5. NC(Cc1ccccc1)C(=O)O (stereo unspecified)

A)
1. > 100 µM
2. > 10 µM
3. > 100 µM
4. > 100 µM
5. > 100 µM

Please state, for each entry, its recorded TGI.
1. Clc1ccc(CCN2CCOCC2)c(Cl)c1
2. C[C@@H]1CC[C@H]2C(CN3CCN(CC4=C(C(F)(F)F)O[C@@H]5O[C@@]6(C)CC[C@H]7[C@H](C)CC[C@@H]4[C@@]57OO6)CC3)=C(C(F)(F)F)O[C@@H]3O[C@@]4(C)CC[C@@H]1[C@]32OO4
3. CC1=NN(C(=O)Cc2ccccc2)C(=O)/C1=C\c1cccc(O)c1
4. CCNC1=CC(=O)c2ncccc2C1=O
5. O=C(c1ccccc1)c1ccc2c(c1)N=C(c1ccc(Cl)c(Cl)c1)CC(c1ccc3ccccc3c1)N2 (stereo unspecified)

A)
1: > 100 µM; 2: > 27.2 µM; 3: > 100 µM; 4: 19.6 µM; 5: > 100 µM

// for each compound below, give its TGI
1. CCOC(=O)c1c(C)n(CCN2CCN(C)CC2)c2ccc(OC)cc12
2. CC1=CC(=O)c2[nH]c3ccccc3c2C1=O
3. Cc1ccc(Nc2ccnc(Nc3cccc(C(N)=O)c3)n2)cc1O
4. NC(=O)CN1CCN(c2nc(N3CCCC3)c3nc(Cl)c(NCc4ccccc4)nc3n2)CC1
5. Cc1cc(C#Cc2ccccc2)ccc1-n1c(/C=C/c2ccc(O)cc2)nc2ccccc2c1=O
6. C=C1C[C@]23CC[C@@H]4C(CO)(CO)CC(=O)C[C@]4(C)[C@@H]2C(O)C[C@H]1C3 (stereo partly specified)

A)
> 100 µM
7.54 µM
> 25 µM
32.2 µM
8.52 µM
> 100 µM

----------
test system: HL-60(TB) leukemia; assay: NCI tumour cell line growth inhibition, 48 h; in the data active = GI50 below about 0.43 µM; inactive = the rest
// allowed return values: active, inactive

As a guide, the following entries are already answered.
molecule: NC(=O)c1ccc(NC(=O)c2oc3ccccc3c2-c2cnn(-c3ccccc3)c2)cc1
category label: inactive
//
molecule: CC(Cl)CC(=O)Nc1ccc2c(c1)oc(=O)c1cc(NC(=O)CC(C)Cl)ccc12 (configuration not stated)
category label: inactive
//
molecule: COc1cc(C(=O)c2c(-c3ccccc3)oc3ccccc23)cc(OC)c1O
category label: inactive
//
molecule: CCc1ccc(/C=C2/SC(=S)NC2=O)cc1
category label: inactive
//
molecule: CN1C=CN(Cc2ccc(-c3ccccn3)nc2)[CH-]1.CN1C=CN(Cc2ccc(-c3ccccn3)nc2)[CH-]1.[Au+3]
category label: inactive
//
molecule: O.O=[Se](=O)(O)O.[NH-]C1CCCCC1[NH-].[Pt+2] (configuration not stated)
category label: inactive

Q) State the result this test recorded for O=C(Nc1ccc(-c2nc3ccc(NC(=O)c4ccc(Cl)cc4)cc3[nH]2)cc1)c1ccc(Cl)cc1 .
A) inactive

Q) Given CCn1c(-c2cc3ccccc3cc2OC(=O)c2ccccc2)n[nH]c1=S , state the outcome it received in this test.
A) inactive

Q) Which outcome was entered for the molecule CCOc1ccc(N2C(N)=NC(N)=NC2(C)C)cc1 in this test?
A) inactive

Q) Name the outcome recorded for C[C@H]1CC(=O)[C@@]2(O)C#C/C=C\C#C[C@@H]3Nc4c(cc(O)c5c4C(=O)c4ccccc4C5=O)[C@]24O[C@]314 in the assay.
A) active

Q) Record lookup: outcome of this test for Fc1ccc(-c2c(-c3ccncc3)n(CCN3CCOCC3)c3cccnc23)cc1 ?
A) inactive

Q) What outcome does the record of this test show for COc1cc(Nc2ncc(-c3ccccc3)o2)cc(OC)c1OC ?
A) inactive

Q) Entry O=C(O)C(O)C(O)C1[O][Sb][O]C1CO (configuration not stated) : call = ?
A) inactive

Q) Which outcome was assigned to CCN(CC)c1ccc(/C=N\NC(=O)c2cccc(Nc3ccnc(C(F)(F)F)c3)c2)c(O)c1 in this test?
A) active

----------
Provide the recorded TGI for the entries that follow.
system: CCRF-CEM leukemia; assay: NCI tumour cell line growth inhibition, 48 h

Example results:
compound: CN(c1ccccc1)c1c(-c2ccccc2)c(=O)oc2c1ccc1occc12
result type: TGI
readout value: > 100 µM

compound: C[Si](C)(C)[C@@]1([Se]c2ccccc2)CC[C@@H]1C(=O)c1ccccc1
result type: TGI
readout value: > 100 µM

compound: CCCCC[C@@H]1OC(=O)[C@@]2(CC3c4ccccc4C2c2ccccc23)[C@H]1C(=O)OC
result type: TGI
readout value: > 100 µM

For each listed entry, give its TGI.
1. C=CC(=O)N1C/C(=C\c2ccc(F)cc2)C(=O)/C(=C/c2ccc(F)cc2)C1
2. N#CC(C#N)=C/C=C/c1cccc([N+](=O)[O-])c1
3. Cc1ccc(NC(=O)CCC(=O)C(C#N)c2ccc(Cl)cc2)cc1C (stereo unspecified)
4. C[P+](C)(CC(F)(F)F)c1ccccc1
5. Oc1cc(Br)cc2cc(Br)cnc12

A)
1. > 100 µM
2. 15.2 µM
3. > 100 µM
4. > 100 µM
5. 6.27 µM

Count: 2. Required value per item: TGI.
1. COC(=O)[C@]12CCC(=O)N1[C@H](C(=O)O)Cc1c2[nH]c2ccccc12
2. CC(C)S(=O)(=O)n1c(N)nc2ccc(/C(=N/O)c3ccccc3)cc21

A)
> 100 µM
57.2 µM

Give TGI for all compounds that follow.
1. CCCNC(=O)Cn1c(-c2ccccc2)cc2ccccc21
2. CC(C)=CCC[C@](C)(O)[C@H]1CC[C@]2(C)[C@@H]1CC[C@@H]1[C@@]3(C)CC[C@H](OC(=O)CCC(=O)O)C(C)(C)[C@@H]3CC[C@]12C
3. CC(=O)N/N=C1\NN(C(C)=O)C2(S1)C(=O)Nc1ccccc12 (stereo unspecified)
4. Clc1cccc(Cl)c1C1ON=C(c2ccccc2)N1C12CC3CC(CC(C3)C1)C2 (stereo unspecified)
5. NC(=O)c1ccc(-c2c3ccccc3cc3c2ccc2ccccc23)cc1
6. O=C1CCC(c2ccccc2)(c2ccccc2)CC1
7. NC(=O)c1ccc(NC(=O)c2oc3ccccc3c2-c2cnn(-c3ccccc3)c2)cc1

A)
1. > 100 µM
2. 58 µM
3. > 100 µM
4. 56.5 µM
5. > 100 µM
6. 52 µM
7. > 23.2 µM

State the recorded TGI for every item in the following list.
1. Cc1ccc(N=Nc2cc(=O)[nH]c(=O)[nH]2)cc1C
2. CCCCCCCCCCCOCCC1C(C(C)OCCN2CCCC2)OC2OC(C)(C)OC21 (stereo unspecified)
3. COC(=O)C[C@H]1[C@]2(C)C3=C(C)[C@H](c4ccoc4)CC3O[C@@H]2[C@@H]2OC(=O)[C@]3(C)CCC(=O)[C@@]1(C)[C@@H]23 (stereo partly specified)
4. O=C(NNc1ccc([N+](=O)[O-])cc1)C1OC(CO)C(O)C1O (stereo unspecified)

A)
["> 100 µM", "> 23.9 µM", "45.1 µM", "> 100 µM"]

----------
system: SNB-78 CNS; assay: NCI tumour cell line growth inhibition, 48 h
Give measured TGI for each item. Keep answers brief.

compound: N#CC(/C(=N\NC(N)=S)C(=O)NC1C2CC3CC(C2)CC1C3)c1ccc(Cl)cc1 (stereo unspecified)
readout value: > 100 µM
--
compound: COc1ccc(/C(Cl)=C(\C=O)c2ccc(Cl)cc2)cc1
readout value: > 100 µM
--
compound: COc1ccccc1OCC(COC(=O)Nc1ccc(C)cc1)OC(=O)Nc1ccc(C)cc1 (stereo unspecified)
readout value: 91.6 µM
--
compound: CN(C)/C(=N/C(=O)Nc1ccccc1)SCc1ccccc1
readout value: > 100 µM
--
compound: Cc1cc(Br)cc(C)c1NC(=O)C(=O)C(C(=O)c1ccc(Cl)c(Cl)c1)C1OC(=O)c2ccccc21 (stereo unspecified)
readout value: > 100 µM

State recorded TGI for all listed compounds.
1. CC(=O)Nc1[nH]c(=O)[nH]c(=O)c1N(C(C)=O)C(C)=O
2. CC12CC(=O)NN=C1c1ccccc1C2 (stereo unspecified)
3. COc1cccc2c1C(=O)c1c(O)c3c(c(O)c1C2=O)C[C@](O)(C(=O)CO)CC3OC1CC(N)C(OC2CCCCO2)C(C)O1 (stereo partly specified)
4. O=C(NNc1ccc([N+](=O)[O-])cc1)C1OC(CO)C(O)C1O (stereo unspecified)
5. CCCC/C(C)=N/NC(N)=S
6. COC(=N)/C(=C1\OC(N)=C(c2ccc(Cl)cc2)C1=O)c1ccc(Cl)cc1

A)
1: > 100 µM; 2: > 100 µM; 3: 6.02 µM; 4: > 100 µM; 5: > 100 µM; 6: > 100 µM
